procedureText: yeast display, Sf9 membrane polyspecificity reagent, FACS + sequencing; frameworks hold sequencing errors
assayReadout: polyreactivity (PSR sort gate)

Worked cases, polyreactivity (PSR sort gate) given:
Consider the sequence shown here: "QVQLVESGGGLVQAGGSLRLSCAASGRIFSYNDMGWYRQAPGKERELVAAISWNSGRTYYADSVKGRFTISRDNAKNTVYLQMNSLKPEDTAVYYCNAPYWKSRFRAYYHWGQGTQVTVSS" What is its recorded polyreactivity (PSR sort gate)?
high polyreactivity

"QVQLVESGGGLVQAGGSLRLSCAASGRIFPNYVMGWYRQAPGKERELVAAISRRGGRTYYADSVKGRFTISRDNAKNTVYLQMNSLKPEDTAVYYCARVPTRAEDVAGWTGMDYWGQGTQVTVSS" , same question.
high polyreactivity

Another sequence: "QVQLVESGGGLVQAGGSLRLSCAASGRTFYQYDMGWYRQAPGKESELVAAIDWSGGSTYYADSVKGRFTISRDYAKITVYLQMNSLKPEDTAVYYCNADAYPHPVVGYDYWGQGTQVTVSS"
low polyreactivity

How about "QVQLVESGGGLVQAGGSLRLSCAASGTIFTINAMGWYRQAAGKERELVAAISWSGAHTYYADSVKGRFTISRDNAKNTVFLQMNSLKPEDTAVYYCATGYNYLERNTGYFHRFDYWGQGTQVTVSS" ?
low polyreactivity

Field entry: "QVQLVESGGCLVQAGGSLRLSCAASGFTFDIYAMGWYRQAPGKERELVATISRSGGTTYYADSVKGRFTISRDNAKNTVYLQMNCLKPEDTAVYYCAAAAYYYRYRYRMYYWGQGTQVTVSS"
high polyreactivity

More entries:
Quick one: polyreactivity (PSR sort gate) for "QVQLVESGGGIVQAGGSLRLSCAASGSIFSKYAMGWYRQAPGKERELVATISSSVGSTYYADSVKGRFTISRDNAKNTVYLQMNSLKPEDTAVYYCAARPDYEYGSHYRGGYWGQGTQVSVSS" ?
low polyreactivity

Also need "QLQLVESGGGLVQAGGSLRLSCAASGLTFQYYDMGRYRQAPGKERELVDVIRGSGTSTYYADSVKGRFTISRDNAKNTVYLQMNCLKPEDTAVYYCAAPYQYRRTGRVLGKYDSWGQGTQVTVSS" , thanks.
high polyreactivity

Then this sequence: "QVQLVESGGGLVQAGGSLLLSCGASGFIFYAYAMGWYRQAPVKDRELVAVMSSSGGSTYYADSVTGRFSISRAHAKTTVYLEWNSLKPDDTGGYYCAAETGTGETRYYRYWDYYYWGQGTQVTVSS"
high polyreactivity

Now the same for "QVQLVESGGGLVQAGGSLRLSCAASGLIYYRYAMGWYRQAPGKERELVAAITTNGARTYYADSVKGRFTISRDNAKNTVYLQMNSLKPEDTAVYYCAAYGAGKFWAEHNYWGQGTQVTVSS"
high polyreactivity

// repeat for "QVQLVESGGGLVQAGGSLRLSCAASGRNFDWYAMGWYRQAPGKERELVAAISTSGANTYYADSVKGRFTISRDNAKNTVYLQMNSLKPEDTAVYYCATDPYQPYEGDYWGQGTLVTVSS" and report
low polyreactivity

---

procedureText: yeast display, Sf9 membrane polyspecificity reagent, FACS + sequencing; frameworks hold sequencing errors
assayReadout: polyreactivity (PSR sort gate)

Consider the worked cases shown below.
Record request: polyreactivity (PSR sort gate) value, item "QVQIVESGGALVQAGGSLRLSCAASGSTHGNAMGWYRQAPGKERELVAAISLNTGSTYYADSVKGRFTISRDNAKNTVYLQMNSLKPEDTAVYYCAAGGTARDDSWGQGTQVTVSS"
low polyreactivity

Next entry: "QVQLVESGGGLVQAGGSLRLSCAASGYIFSYNAMGWYRQAPGKERELVAAITGDSGTYYADSVKGRFTISRDNAKNTVYLQMNSLKPEDTAVYYCATDPYIFPVFYDLYWGYNYWGQGTQVTVSS"
low polyreactivity

And what about the sequence "QVQLQESGGGQVQAGGSLRLSCAASGYISTHYFMGWYRQAPGKDREFVAGISNGSITNYADSVKGRFTISRDNARNTVYLQMNSLKPEDTEVYYGAAYEWTYVRFGYWGQGTQVTVSG" ?
high polyreactivity

How about "QVQLVESGGGLVQAGGSLRLICADSRRTFVSYTMGWYRQAPAKERELVAAISSGGSTTYADSVKGRFTISRDNAKNTVYLQMNSLKPEDTAVYYGNARYGWSYWSKYDYWGQGTQVNVSS" ?
high polyreactivity

Then "QVQLVESGVGLVQAGGSLRLRCAASGFTFRYYAMGWNRQAPGKERELVATMSSAGTTNYADSVKGRFTISRDNAKNTVYLPMNSLKPEDTAVYYCAKDLYYRHWRGGFWGQGTQVTVSS" ?
low polyreactivity

Next:
For the sequence shown here, "QVQLVESGGGLVQAGGSLRLSCAASGSTFTENAMGWYRQAPGKERELVATISTSDGSTHYADSVKGRFTISRDNAKNTVYLQMNSLKPEDTAVYYCAARPDYFLWHGYYTRRHYYWGQGTQVTVSS" , give the reported polyreactivity (PSR sort gate).
low polyreactivity

Cool, now "QVQLVESGGGLVQAGGSLRLSCAASGRTFRGNAMGWNRQTHGKERELVAAISWSGGRTYYADSVKGRFTISRDNAKNSVYLQMNSLKPEDTAVYDCAAVVPKYGQAGYDYWGQGTQVSVSS"
high polyreactivity

# repeat for "QVQLVESGGGLVQAGGSLSLSCAASGYIFAVYAMGWYRQAPGKEREFVAVITWRGGSTYYADSVKGRFTISRDNAKNTVYLQMNSLKPEDTAVYYCAARWHFLTSSRFDYWGQGTQVTVSS"
high polyreactivity

Then what about the sequence "QVQLVESGGGLVQAGGSLRLSCAASGSTLGVYAMGWYRQAPGTERELVAAISSGGSTTYADSVKGRFTISRDNEKNTVYLQMNSLKPEDTAVYYCAADRYEGYVTWYWWGAYNYDYWGQGTQVTVSS" ?
high polyreactivity

What do you have for "QVQHVESGGGLVQAGGSLRLSCAASGFTFRWYTMGWYRQAPGKERELVASIRYGGGSTYYADSVKGRFTISRDNAKNTVYLQMNSLKPEDTAVYYCAAESAWTSPYDYWGQGTQVTVSS" ?
high polyreactivity

// query: "QVQLVESGGGLVQAGGSLRLSCAASGFTFDSYAMGWYRQAPGKERELVAAITSTGGSTYYADSVKGRFTISRDTAKNTVYLQMNSLKPEDTAVYYCAARGGYYKRGYWGQGTQVTVSS"
high polyreactivity
